Ref: paper PMC8119466

- target or system: recombinant PRL-2 (Homo sapiens)
- Construct: 6xHis (N, cleaved yes); made in house; host or cells: E. coli One Shot BL21 Star
- Sequence (Q12974 1-167): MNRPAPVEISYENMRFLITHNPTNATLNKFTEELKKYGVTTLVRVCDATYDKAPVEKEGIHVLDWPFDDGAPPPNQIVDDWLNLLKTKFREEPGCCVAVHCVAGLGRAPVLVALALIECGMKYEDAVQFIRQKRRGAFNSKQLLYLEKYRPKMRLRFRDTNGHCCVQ
- method summary: In vitro phosphatase assay (DiFMUP hydrolysis), PRL-2;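 further: PRL-2 activity read as DiFMUP hydrolysis after 20 min at room temperature with drug, enzyme first pre-reduced at 4 °C for 20 min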
- Assay type: biochemical
- particulars: FDA-approved drug screen; compared to DMSO
Where a name gives a salt, the structure may show the parent alone.
reported metric: % Phosphatase Activity (compared to DMSO) PRL-2 (%)

molecule	measure unit	assay result
Cc1cnc(C(=O)O)c[n+]1[O-] [Acipimox]	%	102
C[C@]12C=CC(=O)C=C1CC[C@@H]1[C@@H]2[C@@H](O)C[C@@]2(C)[C@H]1CC[C@]2(O)C(=O)CO [Prednisolone]	%	99
CNC[C@H](O)[C@@H](O)[C@H](O)[C@H](O)CO [Meglumine]	%	125
CO/N=C(\C(=O)N[C@@H]1C(=O)N2C(C(=O)O)=C(CSC(=O)c3ccco3)CS[C@H]12)c1csc(N)n1.Cl [Ceftiofur HCl]	%	104
COc1ccc(-n2nc(C(N)=O)c3c2C(=O)N(c2ccc(N4CCCCC4=O)cc2)CC3)cc1 [Apixaban]	%	132
CC(=O)OCC(=O)[C@@]1(O)[C@H](C)C[C@H]2[C@@H]3CCC4=CC(=O)C=C[C@]4(C)[C@@]3(F)[C@@H](O)C[C@@]21C [Dexamethasone Acetate]	%	93
CN(C)CCCN1c2ccccc2CCc2ccc(Cl)cc21 [Clomipramine HCl]	%	114
Cl.N=C(N)NN [Aminoguanidine (hydrochloride)]	%	91
CNC(=O)c1cc(Oc2ccc(NC(=O)Nc3ccc(Cl)c(C(F)(F)F)c3)c(F)c2)ccn1 [Regorafenib (BAY 73-4506)]	%	88
Cc1c(C(=O)Nc2ccc(N3C[C@@H](C)O[C@@H](C)C3)nc2)cccc1-c1ccc(OC(F)(F)F)cc1 [LDE225 (NVP-LDE225,Erismodegib)]	%	111
Cc1onc(-c2c(Cl)cccc2Cl)c1C(=O)N[C@@H]1C(=O)N2[C@@H]1SC(C)(C)[C@@H]2C(=O)O [Dicloxacillin Sodium]	%	121
Nc1ccn([C@@H]2O[C@H](CO)[C@@H](O)C2(F)F)c(=O)n1 [Gemcitabine HCl]	%	78
CCc1cccc2c3c([nH]c12)C(CC)(CC(=O)O)OCC3 (stereo not drawn) [Etodolac]	%	104
CCN(CC)CCNC(=O)c1cc(Cl)c(N)cc1OC.Cl [MetoclopraMide HCl]	%	84
COc1ccc(CC2c3cc(OC)c(OC)cc3CC[N+]2(C)CCC(=O)OCCCCCOC(=O)CC[N+]2(C)CCc3cc(OC)c(OC)cc3C2Cc2ccc(OC)c(OC)c2)cc1OC (stereo not drawn) [Atracurium Besylate]	%	101
